- test.target: human galectin-4N (N-terminal domain) (Homo sapiens)
- Construct: 4N (N-terminal domain) 4C (C-terminal domain); made in house
- Sequence (P56470 19-150 limits assumed): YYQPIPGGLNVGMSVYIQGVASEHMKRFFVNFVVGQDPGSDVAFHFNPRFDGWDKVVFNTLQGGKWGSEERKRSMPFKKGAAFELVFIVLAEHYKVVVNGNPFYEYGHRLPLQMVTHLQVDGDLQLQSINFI
- protocol: competitive fluorescence polarization assay, galectin-4N
- Format: binding
- conditions: Table 2; N-terminal domain; average and SEM; PBS
metric: pKd
Keep in mind that pKd stands for -log10 of concentration in molar terms.

Sample records with pKd:
[
  {
    "compound": "CO[C@@H]1O[C@H](CO)[C@H](O)[C@H](CNC(=O)c2ccccc2F)[C@H]1O [Compound 7c]",
    "pKd": 2.66
  },
  {
    "compound": "CO[C@@H]1O[C@H](CO)[C@H](O)[C@H](CNC(=O)c2cccc(C(F)(F)F)c2)[C@H]1O [Compound 7k]",
    "pKd": 2.72
  },
  {
    "compound": "CO[C@@H]1O[C@H](CO)[C@H](O)[C@@H](CNC(C)=O)[C@H]1O [Compound 7b]",
    "pKd": 2.72
  }
]

Below: the item to evaluate.
For COc1cc(OC)cc(C(=O)NC[C@H]2[C@@H](O)[C@@H](CO)O[C@@H](OC)[C@@H]2O)c1 [Compound 7j] , what is its reported pKd? 2.70

====

Kd: recorded values
- test.target: human galectin-4N (N-terminal domain) (Homo sapiens, UniProt P56470)
- Construct: 4N (N-terminal domain) 4C (C-terminal domain); made in house
- protocol: competitive fluorescence polarization assay, galectin-4N
- Type: binding
- conditions: Table 2; N-terminal domain; average and SEM; PBS
Quick note: give the figure in µM, leave out the unit.

[
  {
    "compound": "CO[C@@H]1O[C@H](CO)[C@H](O)[C@@H](NC(=O)c2ccccc2)[C@H]1O [Compound 10]",
    "Kd (µM)": 1300
  }
]

Below: the item to evaluate.
For CO[C@@H]1O[C@H](CO)[C@H](O)[C@H](CNC(=O)c2ccc(F)cc2)[C@H]1O [Compound 7e] , what is its reported Kd? 1700

====

Kd: recorded values
- test.target: human galectin-3 (Homo sapiens, UniProt P17931)
- Construct: made in house; host or cells: vector pET3c (the same vector as galectin-7)
- Sequence (P17931 whole entry): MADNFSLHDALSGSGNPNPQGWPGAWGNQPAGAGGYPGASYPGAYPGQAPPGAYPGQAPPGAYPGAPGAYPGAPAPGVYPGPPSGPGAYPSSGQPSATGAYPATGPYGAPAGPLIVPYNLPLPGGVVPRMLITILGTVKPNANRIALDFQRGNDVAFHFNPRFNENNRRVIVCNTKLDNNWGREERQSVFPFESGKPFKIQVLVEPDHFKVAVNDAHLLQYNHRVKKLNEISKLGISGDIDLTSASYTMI
- protocol: competitive fluorescence polarization assay, galectin-3
- Format: binding
- conditions: Table 1; average and SEM; PBS

[
  {
    "molecule": "CO[C@@H]1O[C@H](CO)[C@H](O)[C@@H](CNP(=O)(Oc2ccccc2)Oc2ccccc2)[C@H]1O [Compound 8]",
    "reported.result": "> 4 mM"
  },
  {
    "molecule": "CO[C@@H]1O[C@H](CO)[C@H](O)[C@H](COc2cccc(C(F)(F)F)c2)[C@H]1O [Compound 2]",
    "reported.result": "> 4 mM"
  },
  {
    "molecule": "CO[C@@H]1O[C@H](CO)[C@H](O)[C@@H](CNC(=O)c2ccccc2)[C@H]1O [Compound 7a]",
    "reported.result": "> 4 mM"
  }
]

For CO[C@@H]1O[C@H](CO)[C@H](O)[C@@H](CO)[C@H]1O [Compound 1a] , what is its reported Kd? > 4 mM

For CO[C@@H]1O[C@H](CO)[C@H](O)[C@H](CNC(=O)Nc2cccc(F)c2)[C@H]1O [Compound 5] , what is its reported Kd? > 4 mM

For CO[C@@H]1O[C@H](CO)[C@H](O)[C@H](Cn2cc(-c3cccc(F)c3)nn2)[C@H]1O [Compound 4] , what is its reported Kd? > 4 mM

For COC[C@H]1[C@@H](O)[C@@H](CO)O[C@@H](OC)[C@@H]1O [Compound 3] , what is its reported Kd? > 4 mM

For CO[C@@H]1O[C@H](CO)[C@H](O)[C@@H](CNS(=O)(=O)c2ccccc2)[C@H]1O [Compound 6] , what is its reported Kd? > 4 mM

For CO[C@@H]1O[C@H](CO)[C@H](O)[C@H](CO)[C@H]1O [Compound 1b] , what is its reported Kd? > 4 mM

====

- test.target: human galectin-2 (Homo sapiens, UniProt P05162)
- Construct: made in house
- Sequence (P05162 whole entry): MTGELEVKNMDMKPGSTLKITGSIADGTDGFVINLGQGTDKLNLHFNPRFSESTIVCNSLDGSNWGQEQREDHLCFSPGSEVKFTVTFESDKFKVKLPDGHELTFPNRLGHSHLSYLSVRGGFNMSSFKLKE
- protocol: competitive fluorescence polarization assay, galectin-2
- Type: binding
- conditions: Table 2; average and SEM; PBS
metric: Kd

Sample records with Kd:
[
  {
    "molecule": "CO[C@@H]1O[C@H](CO)[C@H](O)[C@@H](NC(=O)c2ccccc2)[C@H]1O",
    "test.target": "human galectin-2 (Homo sapiens, UniProt P05162)",
    "reported.result": "> 4 mM"
  },
  {
    "molecule": "CO[C@@H]1O[C@H](CO)[C@H](O)[C@H](CNC(=O)c2cccc(C(F)(F)F)c2)[C@H]1O",
    "test.target": "human galectin-2 (Homo sapiens, UniProt P05162)",
    "reported.result": "> 4 mM"
  },
  {
    "molecule": "CO[C@@H]1O[C@H](CO)[C@H](O)[C@@H](O)[C@H]1O [Compound 9, Methyl β-D-Gulopyranoside]",
    "test.target": "human galectin-2 (Homo sapiens, UniProt P05162)",
    "reported.result": "10 mM"
  }
]

Below: the item to evaluate.
For CO[C@@H]1O[C@H](CO)[C@H](O)[C@@H](CNC(C)=O)[C@H]1O , what is its reported Kd? > 4 mM

====

- test.target: human galectin-1 (Homo sapiens)
- Construct: made in house
- Sequence (P09382 whole entry): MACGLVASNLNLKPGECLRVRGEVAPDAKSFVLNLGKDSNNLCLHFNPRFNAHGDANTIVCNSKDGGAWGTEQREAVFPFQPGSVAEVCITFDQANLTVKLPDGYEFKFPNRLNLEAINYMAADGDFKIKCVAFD
- protocol: competitive fluorescence polarization assay, galectin-1
- Assay type: binding
- conditions: Table 1; average and SEM of 4–8 single-triple point measurements; PBS
Kd: recorded values

Sample records with Kd:
[
  {
    "compound": "COC[C@H]1[C@@H](O)[C@@H](CO)O[C@@H](OC)[C@@H]1O [Compound 3]",
    "Kd": "> 4 mM"
  },
  {
    "compound": "CO[C@@H]1O[C@H](CO)[C@H](O)[C@H](CNC(=O)Nc2cccc(F)c2)[C@H]1O [Compound 5]",
    "Kd": "> 4 mM"
  },
  {
    "compound": "CO[C@@H]1O[C@H](CO)[C@H](O)[C@@H](CNC(=O)c2ccccc2)[C@H]1O [Compound 7a]",
    "Kd": "1.8 mM"
  },
  {
    "compound": "CO[C@@H]1O[C@H](CO)[C@H](O)[C@H](CO)[C@H]1O [Compound 1b]",
    "Kd": "> 4 mM"
  },
  {
    "compound": "CO[C@@H]1O[C@H](CO)[C@H](O)[C@@H](CNS(=O)(=O)c2ccccc2)[C@H]1O [Compound 6]",
    "Kd": "> 10 mM"
  },
  {
    "compound": "CO[C@@H]1O[C@H](CO)[C@H](O)[C@H](Cn2cc(-c3cccc(F)c3)nn2)[C@H]1O [Compound 4]",
    "Kd": "> 4 mM"
  },
  {
    "compound": "CO[C@@H]1O[C@H](CO)[C@H](O)[C@@H](CO)[C@H]1O [Compound 1a]",
    "Kd": "1.3 mM"
  },
  {
    "compound": "CO[C@@H]1O[C@H](CO)[C@H](O)[C@@H](CNP(=O)(Oc2ccccc2)Oc2ccccc2)[C@H]1O [Compound 8]",
    "Kd": "> 10 mM"
  }
]

Below: the item to evaluate.
human galectin-1 (Homo sapiens) / Kd / CO[C@@H]1O[C@H](CO)[C@H](O)[C@H](COc2cccc(C(F)(F)F)c2)[C@H]1O [Compound 2] : value? > 4 mM

====

- test.target: human galectin-8C (C-terminal domain) (Homo sapiens)
- Construct: 4N (N-terminal domain) 4C (C-terminal domain), 7, 8N, 8C, 9N, and 9C; made in house
- Sequence (O00214 187-317 limits assumed): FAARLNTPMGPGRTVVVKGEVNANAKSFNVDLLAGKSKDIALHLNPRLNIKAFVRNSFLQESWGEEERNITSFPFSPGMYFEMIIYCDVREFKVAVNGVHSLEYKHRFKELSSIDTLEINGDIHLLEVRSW
- protocol: competitive fluorescence polarization assay, galectin-8C
- Assay type: binding
- conditions: Table 2, average and SEM, PBS
Kd: recorded values

[
  {
    "mol.smiles": "COc1cccc(C(=O)NC[C@H]2[C@@H](O)[C@@H](CO)O[C@@H](OC)[C@@H]2O)c1",
    "reported.result": "> 4 mM"
  },
  {
    "mol.smiles": "CO[C@@H]1O[C@H](CO)[C@H](O)[C@H](CNC(=O)c2cccc(F)c2)[C@H]1O",
    "reported.result": "> 4 mM"
  },
  {
    "mol.smiles": "CO[C@@H]1O[C@H](CO)[C@H](O)[C@H](CNC(=O)c2c(F)c(F)c(F)c(F)c2F)[C@H]1O",
    "reported.result": "> 4 mM"
  }
]

For CO[C@@H]1O[C@H](CO)[C@H](O)[C@H](CNC(=O)c2cc(F)c(F)c(F)c2)[C@H]1O , what is its reported Kd? > 4 mM

For CO[C@@H]1O[C@H](CO)[C@H](O)[C@H](CNC(=O)c2ccc(-c3ccccc3)cc2)[C@H]1O , what is its reported Kd? > 4 mM

For COc1cc(OC)cc(C(=O)NC[C@H]2[C@@H](O)[C@@H](CO)O[C@@H](OC)[C@@H]2O)c1 , what is its reported Kd? 2.6 mM

For CO[C@@H]1O[C@H](CO)[C@H](O)[C@@H](CNC(C)=O)[C@H]1O , what is its reported Kd? 2.7 mM
